The measured values listed here are drawn from ChEMBL document CHEMBL1121748.

Tested on: Phialophora verrucosa
METHOD_DESCRIPTION: Antifungal activity against Phialophora verrucosa
Assay type: functional
In this section, each of the compounds is paired with its reported Inhibition.

// query Inhibition value for entry COc1ccc(C2(Cn3ccnc3)OCC(c3ccc(Cl)cc3)O2)cc1 (stereo unspecified)
100 µg/mL

And Clc1ccc(C2COC(Cn3ccnc3)(c3ccc(Br)cc3)O2)c(Cl)c1 (stereo unspecified) ?
>100 µg/mL

And Fc1ccc(C2COC(Cn3ccnc3)(c3ccc(Cl)cc3)O2)cc1 (stereo unspecified) ?
100 µg/mL

And Cc1ccc(C2(Cn3ccnc3)OCC(c3ccc(Cl)cc3)O2)cc1 (stereo unspecified) ?
100 µg/mL

And Brc1ccc(C2COC(Cn3ccnc3)(c3ccc(Br)cc3)O2)cc1 (stereo unspecified) ?
100 µg/mL

And Clc1ccc(C2COC(Cn3ccnc3)(c3ccc(Br)cc3)O2)cc1 (stereo unspecified) ?
100 µg/mL

* * *

Tested on: Candida tropicalis
METHOD_DESCRIPTION: Antifungal activity against Candida tropicalis
Type: functional
In this section, each of the molecules is paired with its reported Inhibition.

1) Clc1ccc(C2COC(Cn3ccnc3)(c3ccccc3)O2)c(Cl)c1 (configuration not stated): >100 µg/mL
2) Brc1ccc(C2(Cn3ccnc3)OCC(c3ccccc3)O2)cc1 (configuration not stated): >100 µg/mL
3) Clc1ccc(C2COC(Cn3ccnc3)(c3ccccc3Cl)O2)cc1 (configuration not stated): 100 µg/mL
4) Clc1ccc(C2(Cn3ccnc3)OCC(Cc3ccc(-c4ccccc4)cc3)O2)c(Cl)c1 (configuration not stated): >100 µg/mL
5) Clc1ccc(C2(Cn3ccnc3)OCC(c3ccc(Br)cc3)O2)c(Cl)c1 (configuration not stated): 10 µg/mL

// query Inhibition value for entry Clc1ccc(C2(Cn3ccnc3)OCC(c3ccc(Cl)cc3Cl)O2)cc1 (configuration not stated)
>100 µg/mL

And Clc1ccc(C2(Cn3ccnc3)OCC(Cc3ccccc3)O2)c(Cl)c1 (configuration not stated) ?
10 µg/mL

And Clc1ccc(C2(Cn3ccnc3)OCC(c3ccc(Br)cc3)O2)cc1 (configuration not stated) ?
10 µg/mL

And Clc1cccc(C2(Cn3ccnc3)OCC(c3ccc(Cl)cc3Cl)O2)c1 (configuration not stated) ?
100 µg/mL

And Clc1ccc(C2COC(Cn3ccnc3)(c3ccccc3Cl)O2)c(Cl)c1 (configuration not stated) ?
>100 µg/mL

And COc1ccc(CCC2COC(Cn3ccnc3)(c3ccc(Cl)cc3Cl)O2)cc1 (configuration not stated) ?
10 µg/mL

And COc1ccc(C2(Cn3ccnc3)OCC(c3ccc(Cl)cc3)O2)cc1 (configuration not stated) ?
>100 µg/mL

And Clc1ccc(C2COC(Cn3ccnc3)(c3ccc(Cl)cc3Cl)O2)cc1 (configuration not stated) ?
10 µg/mL

* * *

Test system: Candida tropicalis
METHOD_DESCRIPTION: Antifungal activity against Candida tropicalis
Type: functional
METRIC_NAME: Inhibition

// query Inhibition value for entry Brc1ccc(C2COC(Cn3ccnc3)(c3ccc(Br)cc3)O2)cc1 (centres undefined)
100 µg/mL

And Cc1ccc(C2(Cn3ccnc3)OCC(c3ccc(Cl)cc3)O2)cc1 (centres undefined) ?
100 µg/mL

And Clc1ccc(COC(Cn2ccnc2)c2ccc(Cl)cc2Cl)c(Cl)c1 (centres undefined) ?
100 µg/mL

And Clc1ccccc1C1COC(Cn2ccnc2)(c2ccc(Br)cc2)O1 (centres undefined) ?
>100 µg/mL

And Cc1ccc(C2(Cn3ccnc3)OCC(c3ccccc3Cl)O2)cc1 (centres undefined) ?
>100 µg/mL

And Clc1ccc(C2(Cn3ccnc3)OCC(c3ccccc3Cl)O2)c(Cl)c1 (centres undefined) ?
100 µg/mL

And Clc1ccc(C2(Cn3ccnc3)OCC(CCc3ccccc3)O2)c(Cl)c1 (centres undefined) ?
10 µg/mL

And Clc1ccc(C2COC(Cn3ccnc3)(c3ccc(Cl)cc3Cl)O2)c(Cl)c1 (centres undefined) ?
>100 µg/mL

* * *

Test system: Phialophora verrucosa
METHOD_DESCRIPTION: Antifungal activity against Phialophora verrucosa
Format: functional
METRIC_NAME: Inhibition (µg/mL)
# output: bare number, implied unit µg/mL

Worked examples, 2 molecules total:
1) Clc1ccc(C2(Cn3ccnc3)OCC(c3ccc(Br)cc3)O2)cc1 (stereo not drawn): 100
2) Cc1ccc(C2COC(Cn3ccnc3)(c3ccc(Br)cc3)O2)cc1 (stereo not drawn): 100

Switching to the query record.
// query Inhibition value for entry Cc1ccc(C2COC(Cn3ccnc3)(c3ccc(Cl)cc3)O2)cc1 (stereo not drawn)
100

* * *

In this section, each of the compounds is paired with its reported Inhibition.
Test system: Trichophyton rubrum
METHOD_DESCRIPTION: Antifungal activity against Trichophyton rubrum
Type: functional

Under Trichophyton rubrum: Inhibition value of Clc1ccc(COC(Cn2ccnc2)c2ccc(Cl)cc2Cl)c(Cl)c1 (stereo not given) ?
<1 µg/mL

And COc1ccc(C2(Cn3ccnc3)OCC(c3ccc(Cl)cc3)O2)cc1 (stereo not given) ?
10 µg/mL

And Fc1ccc(C2COC(Cn3ccnc3)(c3ccc(Br)cc3)O2)cc1 (stereo not given) ?
<1 µg/mL

And Clc1ccc(C2(Cn3ccnc3)OCC(Cc3ccc(Br)cc3)O2)c(Cl)c1 (stereo not given) ?
<1 µg/mL

And Clc1ccc(C2COC(Cn3ccnc3)(c3ccc(Cl)cc3Cl)O2)c(Cl)c1 (stereo not given) ?
<1 µg/mL

* * *

Tested on: Candida albicans
METHOD_DESCRIPTION: Antifungal activity against Candida albicans
Format: functional
METRIC_NAME: Inhibition

// query Inhibition value for entry Brc1ccc(C2COC(Cn3ccnc3)(c3ccc(Br)cc3)O2)cc1 (configuration not stated)
>100 µg/mL

* * *

System: Mucor
METHOD_DESCRIPTION: Antifungal activity against Mucor species
Assay type: functional
METRIC_NAME: Inhibition

// query Inhibition value for entry Clc1ccccc1C1(Cn2ccnc2)OCC(c2ccc(Br)cc2)O1 (stereo unspecified)
10 µg/mL

And Fc1ccc(C2COC(Cn3ccnc3)(c3ccc(Cl)cc3)O2)cc1 (stereo unspecified) ?
10 µg/mL

And Cc1ccc(C2(Cn3ccnc3)OCC(c3ccc(Cl)cc3Cl)O2)cc1 (stereo unspecified) ?
100 µg/mL

And Clc1ccc(C2COC(Cn3ccnc3)(c3ccc(Br)cc3)O2)c(Cl)c1 (stereo unspecified) ?
100 µg/mL

And Clc1ccc(C2(Cn3ccnc3)OCC(CCc3ccc(-c4ccccc4)cc3)O2)c(Cl)c1 (stereo unspecified) ?
>100 µg/mL

And Clc1ccc(C2COC(Cn3ccnc3)(c3ccc(Cl)cc3Cl)O2)cc1 (stereo unspecified) ?
10 µg/mL

* * *

In this section, each of the compounds is paired with its reported Inhibition.
System: Mucor
METHOD_DESCRIPTION: Antifungal activity against Mucor species
Type: functional
# output: bare number, implied unit µg/mL

Worked examples, 5 compounds total:
1. Brc1ccc(C2COC(Cn3ccnc3)(c3ccc(Br)cc3)O2)cc1 (stereo not drawn): 10
2. Clc1ccc(C2(Cn3ccnc3)OCC(CCc3ccccc3)O2)c(Cl)c1 (stereo not drawn): 10
3. Clc1ccccc1C1COC(Cn2ccnc2)(c2ccc(Br)cc2)O1 (stereo not drawn): 10
4. Clc1ccc(C2COC(Cn3ccnc3)(c3ccc(Cl)cc3Cl)O2)c(Cl)c1 (stereo not drawn): 10
5. Clc1ccc(C2(Cn3ccnc3)OCC(c3ccccc3Cl)O2)cc1 (stereo not drawn): 100

Switching to the query record.
// query Inhibition value for entry COc1ccc(CCC2COC(Cn3ccnc3)(c3ccc(Cl)cc3Cl)O2)cc1 (stereo not drawn)
100

* * *

Tested on: Trichophyton benhamiae
METHOD_DESCRIPTION: Antifungal activity against Trichophyton mentagrophytes
Assay type: functional, trychophyton mentagrophytes
METRIC_NAME: Inhibition

1. Clc1ccc(CCC2COC(Cn3ccnc3)(c3ccc(Cl)cc3Cl)O2)cc1 (configuration not stated): <1 µg/mL
2. Clc1ccc(C2(Cn3ccnc3)OCC(CCc3ccc(-c4ccccc4)cc3)O2)c(Cl)c1 (configuration not stated): <1 µg/mL
3. Clc1ccc(C2(Cn3ccnc3)OCC(c3ccccc3Cl)O2)c(Cl)c1 (configuration not stated): <1 µg/mL
4. Clc1ccc(C2COC(Cn3ccnc3)(c3ccccc3)O2)cc1 (configuration not stated): <1 µg/mL
5. Clc1ccc(C2(Cn3ccnc3)OCC(Cc3ccc(-c4ccccc4)cc3)O2)c(Cl)c1 (configuration not stated): <1 µg/mL

// query Inhibition value for entry Cc1ccc(C2COC(Cn3ccnc3)(c3ccc(Cl)cc3)O2)cc1 (configuration not stated)
<1 µg/mL

And Clc1ccc(C2(Cn3ccnc3)OCC(CCc3ccccc3)O2)c(Cl)c1 (configuration not stated) ?
<1 µg/mL

And Cc1ccc(C2(Cn3ccnc3)OCC(c3ccc(Cl)cc3Cl)O2)cc1 (configuration not stated) ?
<1 µg/mL

And Clc1ccc(C2COC(Cn3ccnc3)(c3ccc(Br)cc3)O2)cc1 (configuration not stated) ?
<1 µg/mL

And Clc1ccc(C2(Cn3ccnc3)OCC(Cc3ccccc3)O2)c(Cl)c1 (configuration not stated) ?
<1 µg/mL

And Clc1ccc(C2COC(Cn3ccnc3)(c3ccccc3Cl)O2)cc1 (configuration not stated) ?
<1 µg/mL

And Brc1ccc(C2COC(Cn3ccnc3)(c3ccccc3)O2)cc1 (configuration not stated) ?
<1 µg/mL

And Clc1ccc(C2(Cn3ccnc3)OCC(c3ccccc3)O2)c(Cl)c1 (configuration not stated) ?
<1 µg/mL

And Clc1ccc(C2COC(Cn3ccnc3)(c3ccc(Cl)cc3Cl)O2)cc1 (configuration not stated) ?
<1 µg/mL

And COc1ccc(CCC2COC(Cn3ccnc3)(c3ccc(Cl)cc3Cl)O2)cc1 (configuration not stated) ?
<1 µg/mL

And Clc1ccc(C2(Cn3ccnc3)OCC(c3ccccc3)O2)cc1 (configuration not stated) ?
<1 µg/mL

And Clc1ccccc1C1COC(Cn2ccnc2)(c2ccc(Br)cc2)O1 (configuration not stated) ?
<1 µg/mL

And Clc1ccc(C2(Cn3ccnc3)OCC(c3ccc(Br)cc3)O2)c(Cl)c1 (configuration not stated) ?
<1 µg/mL

And Brc1ccc(C2(Cn3ccnc3)OCC(c3ccccc3)O2)cc1 (configuration not stated) ?
<1 µg/mL

And COc1ccc(CC2COC(Cn3ccnc3)(c3ccc(Cl)cc3Cl)O2)cc1 (configuration not stated) ?
<1 µg/mL

And Clc1ccc(C2COC(Cn3ccnc3)(c3ccccc3)O2)c(Cl)c1 (configuration not stated) ?
<1 µg/mL

And Clc1ccc(C2(Cn3ccnc3)OCC(c3ccc(Br)cc3)O2)cc1 (configuration not stated) ?
<1 µg/mL
